Target: Somatostatin receptor type 2 (Homo sapiens, UniProt P30874)
Sequence (P30874 whole entry): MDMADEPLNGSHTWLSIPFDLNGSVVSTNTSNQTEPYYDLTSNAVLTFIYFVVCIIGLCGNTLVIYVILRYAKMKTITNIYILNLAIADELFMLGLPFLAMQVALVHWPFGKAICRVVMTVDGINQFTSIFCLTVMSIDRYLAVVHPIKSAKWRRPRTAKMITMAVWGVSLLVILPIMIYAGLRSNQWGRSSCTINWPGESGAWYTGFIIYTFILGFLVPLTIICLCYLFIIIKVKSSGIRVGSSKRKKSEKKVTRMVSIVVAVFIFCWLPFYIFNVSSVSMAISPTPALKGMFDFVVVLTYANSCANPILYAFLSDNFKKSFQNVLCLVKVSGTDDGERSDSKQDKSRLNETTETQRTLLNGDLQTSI
Positions of bridges follow the written chain, without caps; N, C: chain ends. Non-standard residues stand in square brackets, D forms with d. Residues, ends and D or L forms follow the SMILES beside them. NMePhe(4-CH2NHiPr) = CN[C@@H](Cc1ccc(CNC(C)C)cc1)C(=O)O; d2Nal = N[C@H](Cc1ccc2ccccc2c1)C(=O)O
assay_metric: IC50

compound	value_reported
CC(C)NCc1ccc(C[C@H]2C(=O)N[C@@H]([C@@H](C)O)C(=O)N[C@@H](Cc3ccc(O)cc3)C(=O)N[C@@H]([C@@H](C)O)C(=O)N[C@@H](CO)C(=O)N[C@H](C(=O)O)CSSC[C@H](N)C(=O)N[C@@H](CCCCN)C(=O)N[C@@H](Cc3ccccc3)C(=O)N[C@@H](Cc3ccccc3)C(=O)N[C@H](Cc3ccc4ccccc4c3)C(=O)N2C)cc1 (H-CKFF[d2Nal][NMePhe(4-CH2NHiPr)]TYTSC-OH; disulfide 1-11)	> 1000 nM
CC(C)NCc1ccc(C[C@@H]2NC(=O)[C@@H](Cc3c[nH]c4ccccc34)NC(=O)[C@H](Cc3ccccc3)NC(=O)[C@H](Cc3ccccc3)NC(=O)[C@H](CCCCN)NC(=O)[C@@H](N)CSSC[C@@H](C(=O)N[C@@H](CCCCN)C(=O)O)N(C)C(=O)[C@H](CO)NC(=O)[C@H]([C@@H](C)O)NC(=O)[C@H](Cc3ccccc3)NC(=O)[C@H]([C@@H](C)O)NC2=O)cc1	> 1000 nM
CC(C)NCc1ccc(C[C@@H]2NC(=O)[C@H](N(C)C(=O)c3ccc4ccccc4c3)NC(=O)[C@H](Cc3ccccc3)NC(=O)[C@H](Cc3ccccc3)NC(=O)[C@H](CCCCN)NC(=O)[C@@H](N)CSSC[C@@H](C(=O)O)NC(=O)[C@H](CO)NC(=O)[C@H]([C@@H](C)O)NC(=O)[C@H](Cc3ccc(O)cc3)NC(=O)[C@H]([C@@H](C)O)NC2=O)cc1	> 1000 nM
CC(C)NCc1ccc(C[C@@H]2NC(=O)[C@@H](Cc3ccc4ccccc4c3)NC(=O)[C@H](Cc3ccccc3)NC(=O)[C@H](Cc3ccccc3)N(C)C(=O)[C@H](CCCCN)NC(=O)[C@@H](N)CSSC[C@@H](C(=O)O)NC(=O)[C@H](CO)NC(=O)[C@H]([C@@H](C)O)NC(=O)[C@H](Cc3ccccc3)NC(=O)[C@H]([C@@H](C)O)NC2=O)cc1	> 1000 nM

INPUT: Value lookup for IC50; key = CC(C)NCc1ccc(C[C@@H]2NC(=O)[C@@H](Cc3ccc4ccccc4c3)NC(=O)[C@H](Cc3ccccc3)NC(=O)[C@H](Cc3ccccc3)NC(=O)[C@H](CCCCN)N(C)C(=O)[C@@H](N)CSSC[C@@H](C(=O)O)NC(=O)[C@H](CO)NC(=O)[C@H]([C@@H](C)O)NC(=O)[C@H](Cc3ccccc3)NC(=O)[C@H]([C@@H](C)O)NC2=O)cc1
OUTPUT: > 1000 nM

INPUT: Value lookup for IC50; key = CC(C)NCc1ccc(C[C@@H]2NC(=O)[C@@H](Cc3ccc4ccccc4c3)NC(=O)[C@H](Cc3ccccc3)NC(=O)[C@H](Cc3ccccc3)NC(=O)[C@H](CCCCN)NC(=O)[C@@H](N)CSSC[C@@H](C(=O)O)NC(=O)[C@H](CO)NC(=O)[C@H]([C@@H](C)O)NC(=O)[C@H](Cc3ccccc3)N(C)C(=O)[C@H]([C@@H](C)O)NC2=O)cc1
OUTPUT: > 1000 nM
